Assay: Chemical stability of the compound in phosphate buffer at pH 7.3
Type: physicochemical
Task for the reader: assign each of the following molecules its reported K.
One number for each entry, in ×10⁻⁴ /min.

As a guide, the following entries are already answered.
CC(C)(C)c1cc(C(C)(C)C)c2c(c1F)COP(=O)(O[C@H]1C[C@H](n3cc(I)c(=O)[nH]c3=O)O[C@@H]1CO)O2 (stereo in doubt; form 1) :: 7.66
CC(C)(C)c1cc(C(C)(C)C)c2c(c1F)COP(=O)(OC[C@H]1O[C@@H](n3cc(I)c(=O)[nH]c3=O)C[C@@H]1O)O2 (stereo in doubt; form 2) :: 1.88
CC(C)(C)c1cc(C(C)(C)C)c2c(c1F)COP(=O)(OC[C@H]1O[C@@H](n3cc([125I])c(=O)[nH]c3=O)C[C@@H]1F)O2 (stereo in doubt; form 1) :: 3.01
CC(C)(C)c1cc(C(C)(C)C)c2c(c1F)COP(=O)(OC[C@H]1O[C@@H](n3cc(I)c(=O)[nH]c3=O)C[C@@H]1F)O2 (stereo in doubt; form 1) :: 2.92
CC(C)(C)c1cc(C(C)(C)C)c2c(c1F)COP(=O)(OC[C@H]1O[C@@H](n3cc([125I])c(=O)[nH]c3=O)C[C@@H]1F)O2 (stereo in doubt; form 2) :: 2.24

I'm hoping you can list K for every molecule here, please.
1. CC(C)(C)c1cc(C(C)(C)C)c2c(c1F)COP(=O)(OC[C@H]1O[C@@H](n3cc(I)c(=O)[nH]c3=O)C[C@@H]1F)O2 (stereo in doubt; form 2)
2. Cc1cccc2c1OP(=O)(OC[C@H]1O[C@@H](n3cc([125I])c(=O)[nH]c3=O)C[C@@H]1O)OC2 (stereo in doubt; form 1)
3. Cc1cccc2c1OP(=O)(OC[C@H]1O[C@@H](n3cc([125I])c(=O)[nH]c3=O)C[C@@H]1O)OC2 (stereo in doubt; form 2)

1: 2.22; 2: 5.44; 3: 4.63

----------
Field: K. Provide a value for each of the compounds that follow.
Assay: Chemical stability of the compound in phosphate buffer at pH 7.3
Format: physicochemical
Give bare numbers, in ×10⁻³ /min.

Sample records with K:
O=c1[nH]c(=O)n([C@H]2C[C@H](O)[C@@H](COP3(=O)OCc4ccccc4O3)O2)cc1[125I] (stereo in doubt; form 1) :: 2.25
O=c1[nH]c(=O)n([C@H]2C[C@H](OP3(=O)OCc4ccccc4O3)[C@@H](CO)O2)cc1I (stereo in doubt; form 2) :: 1.64
O=c1[nH]c(=O)n([C@H]2C[C@H](OP3(=O)OCc4ccccc4O3)[C@@H](CO)O2)cc1I (stereo in doubt; form 1) :: 2.05

Kindly consider the entry below.
Endpoint output: K of O=c1[nH]c(=O)n([C@H]2C[C@H](O)[C@@H](COP3(=O)OCc4ccccc4O3)O2)cc1[125I] (stereo in doubt; form 2) . Value?
1.52

The reported numbers originate from ChEMBL document CHEMBL2146438.
